Data origin: PubChem BioAssay AID1159580

assay: chemical genetic growth profiling, strain panel (AID 1159580);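 also: tested at 20 µM; growth read once vehicle control cultures reached saturation at 30 °C; 1 = growth at the plate median or of vehicle wells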; settings: S. cerevisiae deletion strains, growth OD, locus YKL085W, strain MDH1 (second series)
Out of some 5,500 compounds screened, about 2,000 (36%) were called active. Inconclusive results (about 18%) are left out. Rule as the data show it: active = normalized growth mostly below about 0.91 (no sharp cut-off); inconclusive = no clear call, values can overlap the other calls; inactive = mostly above about 0.92. The list shows a part of the results.
Mark one answer only. Choices: T = active, F = inactive

These solved cases illustrate the format of a correct answer.
compound: O=[N+]([O-])c1ccc(O)c([N+](=O)[O-])c1
cat: T
//
compound: CCCC(C)C1(CC)C(=O)NC(=O)NC1=O (stereo unspecified)
cat: F
//
compound: O=[N+]([O-])c1cc([As](=O)(O)O)ccc1O
cat: T

## Input // return assay outcome for CC(=O)Nc1cc([As](=O)(O)O)ccc1O
## Output F

## Input Lookup Oc1c(Cl)cc(Cl)c2cccnc12
## Output T

###

assay: chemical genetic growth profiling, strain panel (AID 1159580);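 also: tested at 20 µM; growth read once vehicle control cultures reached saturation at 30 °C; 1 = growth at the plate median or of vehicle wells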; conditions: S. cerevisiae deletion strains, growth OD, locus YJL092W, strain hpr5
Among all 5,500 compounds or so, about 2,000 (36%) were called active. Not shown: some 18% with an inconclusive outcome. No stated cut-off is given here; in the data, active means normalized growth mostly below about 0.91 (no sharp cut-off); inconclusive means no clear call, values can overlap the other calls; inactive means mostly above about 0.92. Some of the results follow.
Lab note: assign the record to one of true = active, false = inactive

molecule: C=C(NC(=O)C(=C)NC(=O)c1csc(C2=NC3c4csc(n4)C4NC(=O)c5csc(n5)C(C(C)(O)C(C)O)NC(=O)C5CSC(=N5)C(=CC)NC(=O)C(C(C)O)NC(=O)c5csc(n5)C3(CC2)NC(=O)C(C)NC(=O)C(=C)NC(=O)C(C)NC(=O)C(C(C)CC)NC2C=Cc3c(C(C)O)cc(nc3C2O)C(=O)OC4C)n1)C(N)=O (stereo not drawn)
cat: false

molecule: C[C@H]1[C@H]2CCC3C4CC=C5C[C@@H](N(C)C)CC[C@]5(C)C4CC[C@@]32CN1C (stereo partly drawn)
cat: false

molecule: C=CC(C1=CC(=O)C(OC)=CC1=O)c1ccc(OC)cc1 (stereo not drawn)
cat: false

molecule: CCCCC1=NC2(CCCC2)C(=O)N1Cc1ccc(-c2ccccc2-c2nn[nH]n2)cc1
cat: false

molecule: C=CC(C1=CC(=O)C(OC)=CC1=O)c1ccccc1 (stereo not drawn)
cat: false

## Input What classification did C=CC(C1=CC(=O)C=CC1=O)c1ccccc1 (stereo not drawn) end up with in this test?
## Output false

## Input Also O=C(O)c1ccccc1Nc1cccc(C(F)(F)F)c1 , if possible.
## Output true

## Input Please give the result for CN/C(=C\[N+](=O)[O-])NCCSCc1ccc(CN(C)C)o1 too.
## Output false

###

experiment: chemical genetic growth profiling, strain panel (AID 1159580);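 also: tested at 20 µM; growth read once vehicle control cultures reached saturation at 30 °C; 1 = growth at the plate median or of vehicle wells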; conditions: S. cerevisiae deletion strains, growth OD, locus YLR221C, strain rsa3
Screen size: about 5,500 compounds; about 2,000 (36%) were called active. Inconclusive results (about 18%) are left out. Cut-off read from the data, not from the text of the source: active = normalized growth mostly below about 0.91 (no sharp cut-off); inconclusive = no clear call, values can overlap the other calls; inactive = mostly above about 0.92. The list shows a part of the results.
Outcome (select one): active, inactive

Before answering, review these 3 worked examples.
compound: CNC[C@@H](O)c1ccc(O)c(O)c1
cat: inactive
--
compound: C1CNCCN1
cat: inactive
--
compound: CN1C(CC(=O)c2ccccc2)CCCC1CC(O)c1ccccc1 (stereo unspecified)
cat: inactive

## Input For this compound, state the assay outcome: CN[C@H](CC(=O)O)C(=O)O
## Output inactive

###

assay: chemical genetic growth profiling, strain panel (AID 1159580);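 also: tested at 20 µM; growth read once vehicle control cultures reached saturation at 30 °C; 1 = growth at the plate median or of vehicle wells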; conditions: S. cerevisiae deletion strains, growth OD, locus YLR371W, strain rom2, stronger effect = lower value
In all, about 5,500 compounds went through this assay and about 2,000 (36%) were called active. Inconclusive results (about 18%) are left out. Some of the results follow.
parameter: normalized growth
One number for each entry.

Previously resolved entries follow.
compound: O=C1O[C@H](C(O)CO)C(O)=C1O (some centres not stated)
normalized growth: 0.959
--
compound: CC(C)NCC(O)c1ccc2ccccc2c1 (configuration not stated)
normalized growth: 0.989
--
compound: OC[C@@H](O)[C@@H](O[C@@H]1O[C@H](CO)[C@@H](O)[C@H](O)[C@H]1O)[C@H](O)[C@@H](O)CO
normalized growth: 1.01
--
compound: Oc1c(Cl)cc(Cl)c2cccnc12
normalized growth: 0.0693

For every item below, please supply its normalized growth.
1. N[C@@H](Cc1ccc(O)c(O)c1)C(=O)O
2. CN1C(CC(=O)c2ccccc2)CCCC1CC(O)c1ccccc1 (configuration not stated)
3. C=CC(C1=CC(=O)C=CC1=O)c1ccccc1 (configuration not stated)

## Output
1: 0.975; 2: 0.984; 3: 0.973
